Source: patent US10231954B2

# study_target: IRR (Homo sapiens)
# Sequence (P14616 27-1297, species assumed): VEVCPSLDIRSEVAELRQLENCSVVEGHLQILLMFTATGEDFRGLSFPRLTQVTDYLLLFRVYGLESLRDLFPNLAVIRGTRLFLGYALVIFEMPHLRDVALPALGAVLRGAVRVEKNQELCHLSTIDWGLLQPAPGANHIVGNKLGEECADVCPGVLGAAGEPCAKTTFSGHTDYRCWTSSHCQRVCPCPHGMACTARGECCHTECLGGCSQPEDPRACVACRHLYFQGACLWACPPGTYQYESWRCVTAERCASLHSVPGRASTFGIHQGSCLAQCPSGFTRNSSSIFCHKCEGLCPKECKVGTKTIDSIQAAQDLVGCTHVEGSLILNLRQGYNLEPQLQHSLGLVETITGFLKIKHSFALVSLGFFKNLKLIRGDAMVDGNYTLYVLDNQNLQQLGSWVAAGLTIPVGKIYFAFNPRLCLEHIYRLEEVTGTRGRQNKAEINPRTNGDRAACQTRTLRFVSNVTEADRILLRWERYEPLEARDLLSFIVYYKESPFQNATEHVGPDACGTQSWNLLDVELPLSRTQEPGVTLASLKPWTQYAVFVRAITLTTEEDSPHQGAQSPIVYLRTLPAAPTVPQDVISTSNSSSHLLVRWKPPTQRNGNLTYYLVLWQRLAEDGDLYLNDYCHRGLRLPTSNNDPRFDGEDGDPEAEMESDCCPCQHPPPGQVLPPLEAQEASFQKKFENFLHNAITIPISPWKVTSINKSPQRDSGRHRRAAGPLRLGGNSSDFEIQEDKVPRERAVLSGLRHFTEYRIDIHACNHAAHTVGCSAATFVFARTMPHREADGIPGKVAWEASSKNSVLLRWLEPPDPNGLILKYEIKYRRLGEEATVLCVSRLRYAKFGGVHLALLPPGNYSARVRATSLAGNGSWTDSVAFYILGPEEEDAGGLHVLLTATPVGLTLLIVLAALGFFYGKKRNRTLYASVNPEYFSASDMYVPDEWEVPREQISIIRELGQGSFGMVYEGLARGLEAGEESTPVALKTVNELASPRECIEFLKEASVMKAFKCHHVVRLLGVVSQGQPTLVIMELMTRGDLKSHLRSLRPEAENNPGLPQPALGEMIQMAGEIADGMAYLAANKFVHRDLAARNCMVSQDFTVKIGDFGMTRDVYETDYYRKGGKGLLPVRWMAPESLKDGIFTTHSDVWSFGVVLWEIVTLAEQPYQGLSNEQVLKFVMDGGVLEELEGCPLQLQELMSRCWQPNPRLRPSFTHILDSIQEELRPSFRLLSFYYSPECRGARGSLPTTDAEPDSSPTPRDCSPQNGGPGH
# protocol_description: Kinase profiling IRR
# Assay type: biochemical
# study_conditions: 100 micromolar inhibitor concentration; 100 is no change
residual kinase activity, IRR values for the compounds below.
endpoint_label: residual kinase activity, IRR

compound	number
O=C(Nc1nc2cc(O)ccc2s1)c1ccncc1 [Compound 03-11]	86
CC(=O)Nc1nc2ccccc2s1 [Compound 03-32]	63
O=C(Nc1nc2cc(O)ccc2s1)c1ccccn1 [Compound 03-13]	78
O=C(Nc1nc2ccc(O)cc2s1)c1ccncc1 [Compound 08-42]	71

====

residual kinase activity, MARK2 values for the compounds below.
# study_target: MARK2 (Homo sapiens, UniProt Q7KZI7)
# Sequence (Q7KZI7 whole entry, species assumed): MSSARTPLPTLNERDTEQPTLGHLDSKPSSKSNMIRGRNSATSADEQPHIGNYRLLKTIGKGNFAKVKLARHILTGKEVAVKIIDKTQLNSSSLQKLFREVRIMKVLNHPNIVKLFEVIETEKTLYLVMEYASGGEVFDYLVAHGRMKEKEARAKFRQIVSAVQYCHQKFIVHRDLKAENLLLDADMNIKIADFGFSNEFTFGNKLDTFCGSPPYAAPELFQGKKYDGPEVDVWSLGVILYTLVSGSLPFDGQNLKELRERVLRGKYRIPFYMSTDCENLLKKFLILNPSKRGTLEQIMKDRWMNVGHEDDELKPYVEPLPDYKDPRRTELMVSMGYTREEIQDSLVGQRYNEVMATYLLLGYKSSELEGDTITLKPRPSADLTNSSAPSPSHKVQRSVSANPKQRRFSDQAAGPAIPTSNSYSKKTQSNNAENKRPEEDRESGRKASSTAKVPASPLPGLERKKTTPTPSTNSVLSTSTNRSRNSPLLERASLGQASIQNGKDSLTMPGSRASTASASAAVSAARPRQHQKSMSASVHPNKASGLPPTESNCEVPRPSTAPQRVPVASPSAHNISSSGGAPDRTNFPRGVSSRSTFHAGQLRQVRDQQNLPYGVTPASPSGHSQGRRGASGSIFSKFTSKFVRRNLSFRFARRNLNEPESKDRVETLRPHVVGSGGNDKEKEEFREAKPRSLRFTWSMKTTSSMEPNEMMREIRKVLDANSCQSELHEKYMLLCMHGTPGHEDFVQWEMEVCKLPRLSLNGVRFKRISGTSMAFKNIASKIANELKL
# protocol_description: Kinase profiling MARK2
# Assay type: biochemical
# study_conditions: 100 micromolar inhibitor concentration; 100 is no change

compound_smiles	residual kinase activity, MARK2
O=C(Nc1nc2cc(O)ccc2s1)c1ccccn1	84
O=C(Nc1nc2cc(O)ccc2s1)c1ccncc1	79
O=C(Nc1nc2ccc(O)cc2s1)c1ccccc1	65
CC(=O)Nc1nc2cc(C)ccc2s1	97
O=C(Nc1nc2ccc(O)cc2s1)c1ccncc1	67

====

# study_target: MPSK1 (Homo sapiens, UniProt O75716)
# Sequence (O75716 whole entry, species assumed): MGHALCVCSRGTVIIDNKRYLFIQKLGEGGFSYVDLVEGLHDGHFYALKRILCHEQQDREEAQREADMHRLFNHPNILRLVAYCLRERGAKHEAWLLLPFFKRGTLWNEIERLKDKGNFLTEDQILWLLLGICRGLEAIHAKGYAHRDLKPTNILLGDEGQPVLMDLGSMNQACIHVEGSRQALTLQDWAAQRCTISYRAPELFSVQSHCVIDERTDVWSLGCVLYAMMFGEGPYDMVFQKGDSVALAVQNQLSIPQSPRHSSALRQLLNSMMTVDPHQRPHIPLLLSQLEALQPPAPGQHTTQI
# protocol_description: Kinase profiling MPSK1
# Type: biochemical
# study_conditions: 100 micromolar inhibitor concentration; 100 is no change
// label = Condition met if residual kinase activity, MPSK1 is not less than 90, otherwise Condition not met

compound	study_target	qualitative_label
O=C(Nc1nc2ccc(O)cc2s1)c1cccnc1 [Compound 08-44]	MPSK1 (Homo sapiens, UniProt O75716)	Condition not met
O=C(Nc1nc2cc(O)ccc2s1)c1ccccn1 [Compound 03-13]	MPSK1 (Homo sapiens, UniProt O75716)	Condition met
O=C(Nc1nc2ccc(O)cc2s1)c1ccncc1 [Compound 08-42]	MPSK1 (Homo sapiens, UniProt O75716)	Condition not met
CC(=O)Nc1nc2ccccc2s1 [Compound 03-32]	MPSK1 (Homo sapiens, UniProt O75716)	Condition not met
O=C(Nc1nc2cc(O)ccc2s1)c1cccnc1 [Compound 03-33]	MPSK1 (Homo sapiens, UniProt O75716)	Condition met
O=C(Nc1nc2cc(O)ccc2s1)c1ccncc1 [Compound 03-11]	MPSK1 (Homo sapiens, UniProt O75716)	Condition not met
O=C(Nc1nc2ccc(O)cc2s1)c1ccccc1 [Compound 03-60]	MPSK1 (Homo sapiens, UniProt O75716)	Condition met

====

# study_target: UniProtKB Q16513
# Sequence (Q16513 whole entry, species assumed): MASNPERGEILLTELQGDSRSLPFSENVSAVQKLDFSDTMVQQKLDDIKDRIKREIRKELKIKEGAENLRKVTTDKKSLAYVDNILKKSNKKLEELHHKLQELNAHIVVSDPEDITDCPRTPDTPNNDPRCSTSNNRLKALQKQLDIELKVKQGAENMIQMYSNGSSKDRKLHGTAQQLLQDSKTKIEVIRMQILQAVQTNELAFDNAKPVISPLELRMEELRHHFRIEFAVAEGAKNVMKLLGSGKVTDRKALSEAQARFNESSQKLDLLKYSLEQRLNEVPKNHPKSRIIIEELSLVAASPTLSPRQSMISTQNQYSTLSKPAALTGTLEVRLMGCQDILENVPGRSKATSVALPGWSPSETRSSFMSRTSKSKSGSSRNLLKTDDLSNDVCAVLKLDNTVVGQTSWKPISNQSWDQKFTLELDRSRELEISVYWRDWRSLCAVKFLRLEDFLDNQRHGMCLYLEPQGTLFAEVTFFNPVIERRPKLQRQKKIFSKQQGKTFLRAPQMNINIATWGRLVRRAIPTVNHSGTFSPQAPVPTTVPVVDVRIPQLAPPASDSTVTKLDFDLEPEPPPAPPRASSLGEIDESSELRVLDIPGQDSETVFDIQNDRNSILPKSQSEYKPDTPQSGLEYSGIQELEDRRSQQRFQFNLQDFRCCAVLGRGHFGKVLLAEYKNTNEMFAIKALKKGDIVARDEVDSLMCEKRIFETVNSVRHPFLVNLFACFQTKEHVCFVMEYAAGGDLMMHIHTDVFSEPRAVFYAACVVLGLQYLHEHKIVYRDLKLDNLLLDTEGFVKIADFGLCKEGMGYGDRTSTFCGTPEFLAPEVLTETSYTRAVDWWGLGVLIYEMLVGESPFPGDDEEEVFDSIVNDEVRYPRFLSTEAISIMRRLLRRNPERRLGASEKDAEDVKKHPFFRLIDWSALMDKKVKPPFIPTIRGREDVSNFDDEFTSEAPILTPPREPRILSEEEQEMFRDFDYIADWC
# protocol_description: Kinase profiling PRK2
# Type: biochemical
# study_conditions: 100 micromolar inhibitor concentration; 100 is no change
// label = TRUE if residual kinase activity, PRK2 is not less than 80, otherwise FALSE

compound	qualitative_label
O=C(Nc1nc2cc(O)ccc2s1)c1ccncc1 [Compound 03-11]	FALSE
CC(=O)Nc1nc2cc(C)ccc2s1 [Compound 03-76]	TRUE
CC(=O)Nc1ccccc1C(=O)Nc1nc2ccc(O)cc2s1 [Compound 08-39]	FALSE
COc1ccc2sc(NC(=O)c3cccc(C(N)=O)c3)nc2c1 [Compound 03-113]	TRUE
O=C(Nc1nc2ccc(O)cc2s1)c1ccncc1 [Compound 08-42]	FALSE
CC(=O)Nc1cccc(C(=O)Nc2nc3ccc(O)cc3s2)c1 [Compound 03-58]	FALSE

====

# study_target: HIPK1 (Homo sapiens, UniProt Q86Z02)
# Sequence (Q86Z02 whole entry, species assumed): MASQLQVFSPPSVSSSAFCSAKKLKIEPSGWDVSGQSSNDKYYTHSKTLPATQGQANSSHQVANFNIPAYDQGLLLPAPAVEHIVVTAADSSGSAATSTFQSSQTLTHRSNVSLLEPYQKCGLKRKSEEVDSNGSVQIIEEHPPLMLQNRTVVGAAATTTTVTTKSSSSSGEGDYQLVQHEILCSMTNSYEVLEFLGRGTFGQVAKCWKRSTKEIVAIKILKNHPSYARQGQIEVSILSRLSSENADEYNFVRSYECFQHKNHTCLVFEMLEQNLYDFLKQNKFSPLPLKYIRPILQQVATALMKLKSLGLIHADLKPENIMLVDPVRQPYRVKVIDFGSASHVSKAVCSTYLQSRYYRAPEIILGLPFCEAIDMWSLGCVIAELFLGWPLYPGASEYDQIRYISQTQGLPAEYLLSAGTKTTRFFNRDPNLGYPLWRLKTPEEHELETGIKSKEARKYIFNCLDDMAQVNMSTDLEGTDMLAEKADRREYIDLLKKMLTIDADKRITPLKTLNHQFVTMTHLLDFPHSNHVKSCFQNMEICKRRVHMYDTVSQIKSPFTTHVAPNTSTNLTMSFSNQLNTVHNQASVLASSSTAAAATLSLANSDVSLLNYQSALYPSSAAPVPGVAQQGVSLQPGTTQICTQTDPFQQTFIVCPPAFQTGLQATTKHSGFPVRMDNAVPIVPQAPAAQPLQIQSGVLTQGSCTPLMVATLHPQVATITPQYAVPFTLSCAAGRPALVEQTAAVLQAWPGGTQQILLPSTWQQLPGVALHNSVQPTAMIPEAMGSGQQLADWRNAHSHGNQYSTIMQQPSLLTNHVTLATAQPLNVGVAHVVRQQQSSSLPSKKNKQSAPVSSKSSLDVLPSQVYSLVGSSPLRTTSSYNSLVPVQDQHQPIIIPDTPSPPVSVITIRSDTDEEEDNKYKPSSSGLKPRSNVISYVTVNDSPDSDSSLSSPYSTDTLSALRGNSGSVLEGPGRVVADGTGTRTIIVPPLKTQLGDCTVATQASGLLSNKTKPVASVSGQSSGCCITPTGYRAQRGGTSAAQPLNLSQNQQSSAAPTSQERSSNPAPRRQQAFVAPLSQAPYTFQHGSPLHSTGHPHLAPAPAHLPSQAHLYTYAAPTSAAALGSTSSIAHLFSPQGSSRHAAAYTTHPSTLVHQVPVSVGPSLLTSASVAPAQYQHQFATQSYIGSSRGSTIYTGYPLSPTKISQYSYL
# protocol_description: Kinase profiling HIPK1
# Assay type: biochemical
# study_conditions: 100 micromolar inhibitor concentration; 100 is no change
residual kinase activity, HIPK1 values for the molecules below.

molecule	residual kinase activity, HIPK1
O=C(Nc1nc2ccc(O)cc2s1)c1ccncc1 [Compound 08-42]	44
O=C(Nc1nc2cc(O)ccc2s1)c1ccncc1 [Compound 03-11]	75
O=C(Nc1nc2ccc(O)cc2s1)c1ccccn1 [Compound 03-12]	47
O=C(Nc1nc2ccc(O)cc2s1)c1ccccc1 [Compound 03-60]	9
O=C(Nc1nc2cc(O)ccc2s1)c1cccnc1 [Compound 03-33]	41
CC(=O)Nc1nc2ccccc2s1 [Compound 03-32]	62
O=C(Nc1nc2cc(O)ccc2s1)c1ccccn1 [Compound 03-13]	76
O=C(Nc1nc2ccc(O)cc2s1)c1cccnc1 [Compound 08-44]	43
CC(=O)Nc1nc2cc(C)ccc2s1 [Compound 03-76]	53
